- Tested on: Jurkat
- assay-overview: Inhibition of TPA/ionomycin-stimulated human TNFalpha promoter expression in human Jurkat T cells by luciferase reporter gene assay
- Assay type: functional, cell-based
readout-label: IC50 (µM)

molecule | IC50 (µM)
CCCCCCCCCCCC(=O)[C@]1(O)C[C@H](C(=O)O)C(C(=O)OCC)=C2N(Cc3ccccc3)CCN21 | 9.5

I: CCCCCCCCCCCC(=O)[C@]1(O)C[C@H](C(=O)OCC)C(C(=O)OCC)=C2N(Cc3ccccc3)CCN21
II: CCCCCCCCCCCC(=O)[C@]1(O)C[C@H](C(=O)OC)C(C(=O)OCC)=C2N(Cc3ccccc3)CCN21
Which of the two items, I and II , has the greater recorded IC50? Please reply using the label of the selected record. I
(I: 9.5 µM, II: 3.6 µM)

Values were extracted from ChEMBL document CHEMBL1143128.
